# TEST SUMMARY: Cytotoxicity against HEL cells assessed as reduction of growth after 3 days
# Format: cell-based
# CONDITIONS USED: human
REPORTED PROPERTY: log10 of CC50 at 72 h (log10 of the value in µg/mL)

>>> meas_value("Cc1cc(Sc2ccc(O)cc2)cn2c(CSCCc3ccccc3)cnc12")
2.00
>>> meas_value("Cc1cc(-n2cccc2)cn2c(CSCc3ccccc3)cnc12")
1.23
>>> meas_value("Cc1cc(-c2ccc3[nH]ccc3c2)cn2c(CSCCc3ccccc3)cnc12")
1.41
>>> meas_value("Cc1cc(Sc2ccc(O)cc2)c2ncc(CSCCc3ccccc3)n2c1")
1.90
>>> meas_value("Cc1cc(-c2ccoc2)cn2c(CSCCc3ccccc3)cnc12")
1.08
>>> meas_value("Cc1cc(-n2ccc3ccccc32)cn2c(CSCCc3ccccc3)cnc12")
1.26
>>> meas_value("Cc1cc(-c2ccsc2)cn2c(CSCc3ccccc3)cnc12")
0.97
>>> meas_value("Cc1cc(-n2ccnc2)cn2c(CSCCc3ccccc3)cnc12")
1.36
>>> meas_value("Cc1cc(Sc2ccc(Cl)cc2)cn2c(CSCCc3ccccc3)cnc12")
1.15
>>> meas_value("Cc1cc(N2CCOCC2)c2ncc(CSCCc3ccccc3)n2c1")
1.69
